# Tested on: PA-1
# protocolText: Primary qHTS to identify gynecologic anti-cancer compounds using libraries of approved drugs and bioactive compounds (AID 1345084); also: nearly all actives have a fitted effect of over 55% in size
# experimentalConditions: Gynecologic cancer cell panel viability, ATPlite luminescence, 48 h; series mostly up to 57.5 µM
Records with an inconclusive call do not appear. Calls of active or inactive are those of the source. Calls follow the shape of the dose curve; as a rule, active = well fitted cell-killing curve with a large enough effect; inconclusive = small, poorly fitted or top-dose-only effect, or effect the other way; inactive = flat fitted curve, though single readings scatter.
reportedMetric: outcome

>>> datavalue("CC(C)(Sc1cc(C(C)(C)C)c(O)c(C(C)(C)C)c1)Sc1cc(C(C)(C)C)c(O)c(C(C)(C)C)c1")
"inactive"
>>> datavalue("O=C(O)CSCC(=O)NC1CCSC1=O (stereo not drawn)")
"inactive"
>>> datavalue("CS(=O)(=O)c1ccc([C@@H](O)[C@@H](CO)NC(=O)C(Cl)Cl)cc1")
"inactive"
>>> datavalue("NC(=O)N1c2ccccc2CC(=O)c2ccccc21")
"inactive"
>>> datavalue("CCC(C)(C)c1ccc(CC(C)CN2C[C@@H](C)O[C@@H](C)C2)cc1 (stereo partly drawn)")
"inactive"
>>> datavalue("CN(Cc1cc(Br)cc(Br)c1N)C1CCCCC1")
"inactive"
>>> datavalue("CNC(=O)c1cc(Oc2ccc(NC(=O)Nc3ccc(Cl)c(C(F)(F)F)c3)cc2)ccn1")
"inactive"
>>> datavalue("Cc1ncc([N+](=O)[O-])n1CCO")
"inactive"
>>> datavalue("COc1ccc2c(c1)c(CC(=O)OCC(=O)O)c(C)n2C(=O)c1ccc(Cl)cc1")
"inactive"
>>> datavalue("OC(Cn1cncn1)(Cn1cncn1)c1ccc(F)cc1F")
"inactive"
>>> datavalue("CCn1cc(C(=O)O)c(=O)c2cc(F)c(N3CCN(C)CC3)cc21")
"inactive"
>>> datavalue("Cn1c(=O)c2c(ncn2CC(O)CO)n(C)c1=O (stereo not drawn)")
"inactive"
>>> datavalue("Cc1onc(-c2ccccc2Cl)c1C(=O)N[C@@H]1C(=O)N2[C@@H]1SC(C)(C)[C@@H]2C(=O)O")
"inactive"
>>> datavalue("Cc1ccnc2c1NC(=O)c1cccnc1N2C1CC1")
"inactive"
>>> datavalue("COCCCOc1cc(C[C@@H](C[C@H](N)[C@@H](O)C[C@H](C(=O)NCC(C)(C)C(N)=O)C(C)C)C(C)C)ccc1OC")
"inactive"
>>> datavalue("O=C(N[C@H](CO)[C@H](O)c1ccc([N+](=O)[O-])cc1)C(Cl)Cl")
"inactive"
>>> datavalue("CCOC(=O)[C@H](CCc1ccccc1)N[C@H]1CCc2ccccc2N(CC(=O)O)C1=O")
"inactive"
>>> datavalue("CC1=NN(c2ccccc2)C(=O)C1")
"inactive"
>>> datavalue("CC(N)C12CC3CC(CC(C3)C1)C2 (stereo not drawn)")
"inactive"
>>> datavalue("COc1ccc(-c2ccc3cc(C(=O)O)ccc3c2)cc1C12CC3CC(CC(C3)C1)C2")
"inactive"
>>> datavalue("Cc1cccc(N(C)C(=S)Oc2ccc3ccccc3c2)c1")
"inactive"
>>> datavalue("NC(=O)c1cccnc1")
"inactive"
>>> datavalue("CC(C)Cn1cnc2c(N)nc3ccccc3c21")
"inactive"

---

# protocolText: Quantitative High-Throughput drug screen in 47 multiple myeloma cell lines against the NCATS MIPE library collection: H1112_PLB cell viability assay (AID 1918967; also: nearly all actives have a fitted effect of over 30% in size)
# experimentalConditions: H1112 myeloma cells viability, ATP luminescence, 48 h; series mostly up to 45.8 µM
Inconclusive results are not listed. The source made the active and inactive calls. The call rests on the fitted dose curve; in most records, active means well fitted cell-killing curve with a large enough effect; inconclusive means small, poorly fitted or top-dose-only effect, or effect the other way; inactive means no such curve, though single readings can be large or run the other way.
Classes used: active, inactive

>>> classification("O[C@@H](CNC[C@H](O)[C@H]1CCc2cc(F)ccc2O1)[C@@H]1CCc2cc(F)ccc2O1")
"active"
>>> classification("Nc1ccc(S(=O)(=O)Nc2ccccn2)cc1")
"inactive"
>>> classification("COc1cccc(N(C)C(=S)Oc2ccc3c(c2)CCCC3)n1")
"inactive"
>>> classification("CCN(CC)CC#CCOC(=O)C(O)(c1ccccc1)C1CCCCC1 (configuration not stated)")
"inactive"
>>> classification("CS(=O)(=O)c1ccc([C@@H](O)[C@@H](CO)NC(=O)C(Cl)Cl)cc1")
"inactive"
>>> classification("COC(=O)Nc1nc2ccc(C(=O)c3ccccc3)cc2[nH]1")
"active"
>>> classification("CCn1cc(C(=O)O)c(=O)c2cc(F)c(N3CCNCC3)nc21")
"inactive"
>>> classification("CN(Cc1cc(Br)cc(Br)c1N)C1CCCCC1")
"inactive"
>>> classification("CN1CCN(c2c(F)cc3c(=O)c(C(=O)O)cn(CCF)c3c2F)CC1")
"inactive"
>>> classification("CN(C)c1ccc(C(=C2C=CC(=[N+](C)C)C=C2)c2ccc(N(C)C)cc2)cc1")
"active"
>>> classification("CCN[C@H]1C[C@H](C)S(=O)(=O)c2sc(S(N)(=O)=O)cc21")
"inactive"
>>> classification("Cn1nnc2c(C(N)=O)ncn2c1=O")
"inactive"
>>> classification("CCn1cc(C(=O)O)c(=O)c2cc(F)c(N3CCN(C)CC3)cc21")
"inactive"
>>> classification("NS(=O)(=O)c1cc2c(cc1Cl)NC(C(Cl)Cl)NS2(=O)=O (configuration not stated)")
"inactive"
>>> classification("NC(=O)c1cccc(N)c1")
"inactive"
>>> classification("CCOC(=O)[C@H](CCc1ccccc1)N[C@H]1CS[C@H](c2cccs2)CN(CC(=O)O)C1=O")
"active"
>>> classification("CCOc1cc(N)c(Cl)cc1C(=O)NCC1CN(Cc2ccc(F)cc2)CCO1 (configuration not stated)")
"inactive"
>>> classification("CCC(=O)O[C@]1(C(=O)CCl)[C@@H](C)C[C@H]2[C@@H]3CCC4=CC(=O)C=C[C@]4(C)[C@@]3(F)[C@@H](O)C[C@@]21C")
"inactive"
>>> classification("Nc1[nH]c(=O)ncc1F")
"inactive"
>>> classification("CCc1cc(C(N)=S)ccn1")
"inactive"
>>> classification("CC1=C(C(=O)O)N2C(=O)[C@@H](NC(=O)C(N)c3ccccc3)[C@H]2SC1 (some centres not stated)")
"inactive"
>>> classification("CC(N)C12CC3CC(CC(C3)C1)C2 (configuration not stated)")
"inactive"
>>> classification("Cc1oc(=O)oc1CN1CCN(c2cc3c(cc2F)c(=O)c(C(=O)O)c2n3C(C)S2)CC1 (configuration not stated)")
"inactive"
>>> classification("Cc1cccc(Nc2ccncc2S(=O)(=O)NC(=O)NC(C)C)c1")
"inactive"
>>> classification("CCN(CC)CCn1c(=O)c(Cc2ccc(OC)cc2)nc2ccccc21")
"inactive"
>>> classification("NNC(=O)c1ccncc1")
"inactive"
>>> classification("CNNCc1ccc(C(=O)NC(C)C)cc1")
"inactive"
>>> classification("N[C@@H](C(=O)N[C@@H]1C(=O)N2C(C(=O)O)=C(Cl)CS[C@H]12)c1ccccc1")
"inactive"
>>> classification("Cc1nnc(NS(=O)(=O)c2ccc(N)cc2)s1")
"inactive"
>>> classification("CCCCS(=N)(=O)CCC(N)C(=O)O (configuration not stated)")
"inactive"
>>> classification("CCCCCCNC(=O)n1cc(F)c(=O)[nH]c1=O")
"active"
>>> classification("COc1ccc(C(=O)CC(=O)c2ccc(C(C)(C)C)cc2)cc1")
"active"
>>> classification("CCCOc1ccc(C(=O)OCCN(CC)CC)cc1N")
"inactive"
>>> classification("CN(C)CCc1c[nH]c2ccc(C[C@H]3COC(=O)N3)cc12")
"inactive"
>>> classification("O=C(O)c1cn(C2CC2)c2cc(N3CCNCC3)c(F)cc2c1=O")
"inactive"
>>> classification("C[C@@H](CN1CC(=O)NC(=O)C1)N1CC(=O)NC(=O)C1")
"active"
>>> classification("CC(=O)CC(c1ccccc1)c1c(O)c2ccccc2oc1=O (configuration not stated)")
"inactive"
>>> classification("Cc1noc(NS(=O)(=O)c2ccc(N)cc2)c1C")
"inactive"
>>> classification("CC(C)OC(=O)C(C(=O)OC(C)C)=C1SC=CS1")
"inactive"
>>> classification("Nc1nc(F)nc2c1ncn2[C@@H]1O[C@H](CO)[C@@H](O)[C@@H]1O")
"active"
>>> classification("CC1=CC(=O)c2ccccc2C1=O")
"active"
>>> classification("Nc1nc(=S)c2[nH]cnc2[nH]1")
"active"
>>> classification("O=C(NCC1CN(c2ccc(N3CCOCC3=O)cc2)C(=O)O1)c1ccc(Cl)s1 (configuration not stated)")
"inactive"
>>> classification("COc1ccc2cc3[n+](cc2c1OC)CCc1cc2c(cc1-3)OCO2")
"active"
>>> classification("CCCN[C@H]1CCc2nc(N)sc2C1")
"inactive"
>>> classification("O=C(O)C1CCCN(CCC=C(c2ccccc2)c2ccccc2)C1 (configuration not stated)")
"inactive"
>>> classification("CC(C)NCC(O)c1ccc(NS(C)(=O)=O)cc1 (configuration not stated)")
"inactive"

Value source: PubChem BioAssay (NCATS)
